# testName: Analytical RP-HPLC retention time (correlates with overall hydrophobicity)
# Assay type: physicochemical
# conditionNotes: same column and gradient; second peak due to 5(6)-Cf isomers
# Protocol: Purified peptides were analyzed by LC-MS using a Thermo Scientific Q Exactive Focus Hybrid Quadrupole-Orbitrap Mass Spectrometer. For the separation, a Waters Acquity UPLC BEH C18 (1.7 µm, 150 × 2.1 mm) column was used with a flow rate of 0.3 ml/min. For INH conjugation, representative cell-penetrating (CPP) and antimicrobial peptides (AMP) were chosen. These cationic, amphiphilic peptides are favored in the transportation of various cargos due to their high internalization rate. […]
Below is a list of entries, each paired with its recorded Rt (retention time), second peak value.

substance: Cf-YKQCHKKGGKKGSG [Cf-Crot(1-9,38-42), 5(6)-carboxyfluorescein-labeled Crot(1-9,38-42)]
Rt (retention time), second peak: 5.8
//
substance: Cf-YGRKKRRQRRR [Cf-Tat, 5(6)-carboxyfluorescein-labeled Tat]
Rt (retention time), second peak: 5.0
//
substance: Cf-RAGLQFPVGRVHRLLRK [Cf-Buforin, 5(6)-carboxyfluorescein-labeled buforin]
Rt (retention time), second peak: 7.8
//
substance: Cf-TKPKGTKPKGTKPKGTKPKG [Cf-OT20, 5(6)-carboxyfluorescein-labeled OT20]
Rt (retention time), second peak: 5.0
//
substance: Cf-KWKLFKKIGAVLKVL [Cf-CM15, 5(6)-carboxyfluorescein-labeled CM15]
Rt (retention time), second peak: 9.7

* * *

# testName: Analytical RP-HPLC retention time (correlates with overall hydrophobicity)
# Type: physicochemical
# Design: unit not given here
# conditionNotes: chromatographic measure of hydrophobicity; Waters Acquity UPLC BEH C18 (1.7 µm, 150 × 2.1 mm), flow rate 0.3 ml/min, gradient 2% B 1 min, 2%–100% B 16 min; single peak or first of two 5(6)-Cf isomer peaks
Ends that are not written are not given here.
Rt (retention time) of 5 or higher: y. Under 5: n.

substance: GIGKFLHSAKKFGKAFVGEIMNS-NH2 [Magainin, reference compound]
className: y
--
substance: TKPKGTKPKGTKPKGTKPKG-NH2 [OT20, reference compound]
className: n
--
substance: YKQCHKKGGKKGSG-NH2 [Crot(1-9,38-42), reference compound]
className: n
--
substance: Cf-GIGAVLKVLTTGLPALISWIKRKRQQ [Cf-Melittin, 5(6)-carboxyfluorescein-labeled melittin]
className: y
--
substance: Cf-RAGLQFPVGRVHRLLRK [Cf-Buforin, 5(6)-carboxyfluorescein-labeled buforin]
className: y
--
substance: KWKLFKKIGAVLKVL-NH2 [CM15, reference compound]
className: y

Entry source: paper PMC8632718
